The measurements presented in this section are drawn from patent US20160159789A1.

tested_on: human full-length MKNK1 (Homo sapiens, UniProt Q9BUB5, T385D)
Sequence (Q9BUB5 1-424 isoform Q9BUB5-2 T344D): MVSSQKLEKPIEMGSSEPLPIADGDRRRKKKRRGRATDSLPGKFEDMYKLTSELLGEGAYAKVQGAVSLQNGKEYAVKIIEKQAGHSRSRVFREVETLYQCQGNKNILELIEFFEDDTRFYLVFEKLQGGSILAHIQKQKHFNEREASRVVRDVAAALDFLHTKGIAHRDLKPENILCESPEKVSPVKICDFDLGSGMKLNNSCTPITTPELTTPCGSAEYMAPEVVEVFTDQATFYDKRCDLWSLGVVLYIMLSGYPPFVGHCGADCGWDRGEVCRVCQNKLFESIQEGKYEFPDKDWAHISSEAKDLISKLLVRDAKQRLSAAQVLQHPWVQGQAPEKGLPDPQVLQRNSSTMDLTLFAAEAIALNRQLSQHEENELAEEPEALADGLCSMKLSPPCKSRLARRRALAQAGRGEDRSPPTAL
protocol_summary: MKNK1 kinase high ATP assay (TR-FRET)
settings: high ATP (2 mM final), 15 min preincubation with enzyme, GST-MKNK1 (T344D)
Method: MKNK1-inhibitory activity at high ATP of compounds of the present invention after their preincubation with MKNK1 was quantified employing the TR-FRET-based MKNK1 high ATP assay as described in the following paragraphs. […]
quantity: IC50 (nM)

For orientation, consider the following solved cases.
molecule	tested_on	IC50, nM
CN(CCC(F)(F)F)C(=O)[C@H]1CCc2c(sc3ncnc(Nc4cc5cn[nH]c5nc4O)c23)C1 [Example 139]	human full-length MKNK1 (Homo sapiens, UniProt Q9BUB5, T385D)	4.7
COc1nc2[nH]ncc2cc1Nc1ncnc2sc3c(c12)CC[C@H](C(=O)N1C[C@@H](C)O[C@@H](C)C1)C3 [Example 36]	human full-length MKNK1 (Homo sapiens, UniProt Q9BUB5, T385D)	0.8
CN(C)C(=O)c1cc2c(Nc3cc4cn[nH]c4cn3)ncnc2[nH]1 [Example 18]	human full-length MKNK1 (Homo sapiens, UniProt Q9BUB5, T385D)	11.1

(1) CCCN(C)C(=O)[C@H]1CCc2c(sc3ncnc(Nc4cc5cn[nH]c5nc4OC)c23)C1 [Example 38]
(2) c1ccc(CCc2nc3c(Nc4cc5cn[nH]c5cn4)ncnc3s2)cc1 [Example 79]
(3) O=C(c1[nH]c2ncnc(Nc3cnc4[nH]ncc4c3)c2c1Br)N1CCOCC1 [Example 74]
(4) CN(C)C1CN(C(=O)[C@H]2CCc3c(sc4ncnc(Nc5cnc6[nH]ncc6c5)c34)C2)C1 [Example 142]
(5) CCCN(C)C(=O)[C@H]1CCc2c(sc3ncnc(Nc4cc5cn[nH]c5nc4O)c23)C1 [Example 113]
// query Order the entries by their reported IC50, beginning at the minimum. Form entry: labels listed in requested order.
// result 1, 5, 4, 3, 2

====

tested_on: human full-length MKNK1 (Homo sapiens, UniProt Q9BUB5, T385D)
protocol_summary: MKNK1 kinase high ATP assay (TR-FRET)
settings: high ATP (2 mM final), 15 min preincubation with enzyme, GST-MKNK1 (T344D)
Protocol: MKNK1-inhibitory activity at high ATP of compounds of the present invention after their preincubation with MKNK1 was quantified employing the TR-FRET-based MKNK1 high ATP assay as described in the following paragraphs. […]
quantity: IC50 (nM)

compound	tested_on	quantity	unit_text	test_value
CC(C)NC(=O)C1CCc2[nH]c3ncnc(Nc4cnc5[nH]ncc5c4)c3c2C1 (racemic)	human full-length MKNK1 (Homo sapiens, UniProt Q9BUB5, T385D)	IC50	nM	24.7

(1) CN(C)[C@@H]1CCN(C(=O)[C@H]2CCc3c(sc4ncnc(Nc5cc6cn[nH]c6cn5)c34)C2)C1
(2) CN(C)C1CN(C(=O)[C@H]2CCc3c(sc4ncnc(Nc5cc6cn[nH]c6cn5)c34)C2)C1
(3) CCCN(C)C(=O)[C@H]1CCc2c(sc3ncnc(Nc4cc5cn[nH]c5cn4)c23)C1
(4) O=C([C@H]1CCc2c(sc3ncnc(Nc4cc5cn[nH]c5cn4)c23)C1)N1CCC1
(5) COc1nc2[nH]ncc2cc1Nc1ncnc2sc(C(=O)N(C)CCC(=O)N(C)C)nc12
// query Arrange these 5 compounds in increasing order of IC50. Response format: the labels, sorted as the prompt asks.
// result 2, 1, 4, 3, 5
